The measurements presented in this section are drawn from patent US20250250357A1.

# targetSystem: T1, monkey MSLN on HEK293T-monkey MSLN recombinant cells (monkey)
# T1 construct: Full-length precursor as transfected; processing on the cell is not described; also called HEK293-monkey MSLN
# T1 chain: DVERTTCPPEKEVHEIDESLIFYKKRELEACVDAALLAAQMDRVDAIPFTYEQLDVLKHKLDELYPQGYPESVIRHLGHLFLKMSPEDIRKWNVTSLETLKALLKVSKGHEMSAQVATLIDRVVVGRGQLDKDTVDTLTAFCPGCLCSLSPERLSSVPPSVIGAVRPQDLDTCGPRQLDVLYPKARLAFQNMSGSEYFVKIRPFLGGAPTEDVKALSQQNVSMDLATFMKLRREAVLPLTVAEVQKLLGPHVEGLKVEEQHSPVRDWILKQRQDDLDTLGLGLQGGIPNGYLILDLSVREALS
# methodNotes: FACS, HEK293T-monkey MSLN cells
The entries below are paired with their reported EC50.
Return type: number; implicit unit nM.

These solved cases illustrate the format of a correct answer.
Item F2.39.3-H5 (scFv, not shown: small tags and cut ends, also called S009-F2.39.3 humanized antibody VH2 + VL1) scFv: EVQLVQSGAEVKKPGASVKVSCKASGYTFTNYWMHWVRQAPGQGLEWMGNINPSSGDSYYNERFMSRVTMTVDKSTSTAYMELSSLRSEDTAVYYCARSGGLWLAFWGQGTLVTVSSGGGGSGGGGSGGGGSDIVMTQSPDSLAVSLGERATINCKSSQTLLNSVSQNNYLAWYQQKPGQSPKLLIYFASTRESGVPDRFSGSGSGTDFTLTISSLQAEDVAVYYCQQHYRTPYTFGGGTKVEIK has what recorded EC50?
5.64

Dear colleague, I am looking for the recorded EC50 of the following binder: F2.39.3-H8 (scFv, not shown: small tags and cut ends, also called S009-F2.39.3 humanized antibody VH2 + VL4) scFv: EVQLVQSGAEVKKPGASVKVSCKASGYTFTNYWMHWVRQAPGQGLEWMGNINPSSGDSYYNERFMSRVTMTVDKSTSTAYMELSSLRSEDTAVYYCARSGGLWLAFWGQGTLVTVSSGGGGSGGGGSGGGGSDIVMTQTPLSLSVTPGQPASISCKSSQTLLNSVSQNNYLAWYQQKPGQSPTLLVYFASTRESGVPDRFSGSGSGTDFTLKISRVEAEDVGVYYCQQHYRTPYTFGGGTKVEIK
12.8

Recorded EC50 of F2.23.12-H16 (scFv, not shown: small tags and cut ends, also called S009-F2.23.12 humanized antibody VH4 + VL4) scFv: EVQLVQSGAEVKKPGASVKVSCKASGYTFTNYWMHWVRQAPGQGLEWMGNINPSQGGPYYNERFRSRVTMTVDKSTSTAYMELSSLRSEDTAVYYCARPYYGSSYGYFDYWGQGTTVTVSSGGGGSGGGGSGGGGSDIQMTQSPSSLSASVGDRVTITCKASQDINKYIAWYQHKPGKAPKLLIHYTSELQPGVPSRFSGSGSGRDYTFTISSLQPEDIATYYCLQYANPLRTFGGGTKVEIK , please.
12.3

Continuing:
Which EC50 value is on record for F2.23.12-H8 (scFv, not shown: small tags and cut ends, also called S009-F2.23.12 humanized antibody VH2 + VL4) scFv: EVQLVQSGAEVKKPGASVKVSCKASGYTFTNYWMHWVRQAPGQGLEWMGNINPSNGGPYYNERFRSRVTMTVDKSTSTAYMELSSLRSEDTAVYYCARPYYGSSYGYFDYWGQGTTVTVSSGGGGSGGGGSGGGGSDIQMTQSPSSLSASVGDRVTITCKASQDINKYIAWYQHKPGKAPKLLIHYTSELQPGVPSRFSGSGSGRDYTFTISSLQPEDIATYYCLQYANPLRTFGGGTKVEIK ?
5.22

# lookup: EC50 of F2.39.3-H6 (scFv, not shown: small tags and cut ends, also called S009-F2.39.3 humanized antibody VH2 + VL2) scFv: EVQLVQSGAEVKKPGASVKVSCKASGYTFTNYWMHWVRQAPGQGLEWMGNINPSSGDSYYNERFMSRVTMTVDKSTSTAYMELSSLRSEDTAVYYCARSGGLWLAFWGQGTLVTVSSGGGGSGGGGSGGGGSDIVMTQSPDSLAVSLGERATINCKSSQTLLNSVSQNNYLAWYQQKPGQSPTLLIYFASTRESGVPDRFSGSGSGTDFTLTISSLQAEDVAVYYCQQHYRTPYTFGGGTKVEIK
8.9

Field request: EC50 | item: F2.23.12-H5 (scFv, not shown: small tags and cut ends, also called S009-F2.23.12 humanized antibody VH2 + VL1) scFv: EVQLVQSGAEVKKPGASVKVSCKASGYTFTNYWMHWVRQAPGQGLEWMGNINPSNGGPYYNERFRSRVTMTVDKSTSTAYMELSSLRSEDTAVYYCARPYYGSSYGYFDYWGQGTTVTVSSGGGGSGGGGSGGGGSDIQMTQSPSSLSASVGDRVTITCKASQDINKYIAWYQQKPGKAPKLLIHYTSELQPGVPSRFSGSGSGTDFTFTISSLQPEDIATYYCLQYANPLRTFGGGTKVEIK
5.86

Could you share which EC50 value was measured for F2.23.12-H4 (scFv, not shown: small tags and cut ends, also called S009-F2.23.12 humanized antibody VH1 + VL4) scFv: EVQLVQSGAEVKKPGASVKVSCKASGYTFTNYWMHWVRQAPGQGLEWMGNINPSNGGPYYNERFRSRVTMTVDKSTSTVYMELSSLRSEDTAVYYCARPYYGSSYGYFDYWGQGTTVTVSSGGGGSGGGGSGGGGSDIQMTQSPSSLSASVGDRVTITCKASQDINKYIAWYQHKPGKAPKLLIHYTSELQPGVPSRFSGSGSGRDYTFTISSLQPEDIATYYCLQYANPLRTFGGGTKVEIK ?
2.5

State the recorded EC50 for this entry: F2.39.3-H2 (scFv, not shown: small tags and cut ends, also called S009-F2.39.3 humanized antibody VH1 + VL2) scFv: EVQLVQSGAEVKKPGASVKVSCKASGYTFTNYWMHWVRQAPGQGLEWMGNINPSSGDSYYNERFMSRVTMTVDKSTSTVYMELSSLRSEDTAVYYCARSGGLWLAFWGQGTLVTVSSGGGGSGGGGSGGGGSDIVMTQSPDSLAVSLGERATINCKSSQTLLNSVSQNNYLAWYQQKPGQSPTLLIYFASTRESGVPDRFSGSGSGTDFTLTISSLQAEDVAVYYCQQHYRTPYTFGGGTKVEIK
8.74

Can you share its EC50? I mean this binder: F2.23.12-H13 (scFv, not shown: small tags and cut ends, also called S009-F2.23.12 humanized antibody VH4 + VL1) scFv: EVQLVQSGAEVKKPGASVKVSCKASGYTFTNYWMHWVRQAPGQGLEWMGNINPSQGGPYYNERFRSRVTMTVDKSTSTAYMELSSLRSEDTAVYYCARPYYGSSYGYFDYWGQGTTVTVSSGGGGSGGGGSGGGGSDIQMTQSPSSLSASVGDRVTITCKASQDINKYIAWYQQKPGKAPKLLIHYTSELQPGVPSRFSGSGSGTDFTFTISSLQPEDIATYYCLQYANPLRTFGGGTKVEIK
10.9

Need EC50, item F2.39.3-H1 (scFv, not shown: small tags and cut ends, also called S009-F2.39.3 humanized antibody VH1 + VL1) scFv: EVQLVQSGAEVKKPGASVKVSCKASGYTFTNYWMHWVRQAPGQGLEWMGNINPSSGDSYYNERFMSRVTMTVDKSTSTVYMELSSLRSEDTAVYYCARSGGLWLAFWGQGTLVTVSSGGGGSGGGGSGGGGSDIVMTQSPDSLAVSLGERATINCKSSQTLLNSVSQNNYLAWYQQKPGQSPKLLIYFASTRESGVPDRFSGSGSGTDFTLTISSLQAEDVAVYYCQQHYRTPYTFGGGTKVEIK
5.31
